Tested on: S. aureus AD3
assay_details: MIC/MBC by broth micro dilution
Assay type: cell-based
study_conditions: Staphylococcus aureus; S. aureus AD3 (clinical strain); lowest concentration reducing viable counts by 99.9%
Method: All the synthesised 1,2,3-triazole linked pleuromutilin analogues were screened for in vitro antibacterial activities against methicillin-resistant S. aureus (ATCC 43300), S. aureus (ATCC 29213), and two clinical strains of S. aureus (AD3 and 144, isolated from Guangdong Province, China). […] MBC values were determined according to CLSI (2003) and previously report with slightly modification[18]^,[28]^,[31]. […]
value_type: MBC (µg/mL)
Answer in µg/mL, number only, no unit symbol.

Summary for this molecule, `C=C[C@]1(C)C[C@@H](OC(=O)Cn2cc(CN3CCN(c4ccccc4OC)CC3)nn2)[C@]2(C)[C@H](C)CC[C@]3(CCC(=O)[C@H]32)[C@@H](C)[C@@H]1O` : MBC is 16

Summary for this molecule, `C=C[C@]1(C)C[C@@H](OC(=O)Cn2cc(CN3CCN(c4cccc(F)c4)CC3)nn2)[C@]2(C)[C@H](C)CC[C@]3(CCC(=O)[C@H]32)[C@@H](C)[C@@H]1O` : MBC is 16

Summary for this molecule, C=CC1(C)CC(OC(=O)Cn2cc(CN3CCOCC3)nn2)C2(C)C(C)CCC3(CCC(=O)C32)C(C)C1O (centres unmarked) : MBC is 32

Summary for this molecule, `C=C[C@]1(C)C[C@@H](OC(=O)Cn2cc(CN3CCN(c4ccccc4[N+](=O)[O-])CC3)nn2)[C@]2(C)[C@H](C)CC[C@]3(CCC(=O)[C@H]32)[C@@H](C)[C@@H]1O` : MBC is 4

Summary for this molecule, `C=C[C@]1(C)C[C@@H](OC(=O)Cn2cc(CN3CCN(c4ccc(Cl)cc4)CC3)nn2)[C@]2(C)[C@H](C)CC[C@]3(CCC(=O)[C@H]32)[C@@H](C)[C@@H]1O` : MBC is 32

Summary for this molecule, `C=C[C@]1(C)C[C@@H](OC(=O)Cn2cc(CN3CCN(c4cccc(O)c4)CC3)nn2)[C@]2(C)[C@H](C)CC[C@]3(CCC(=O)[C@H]32)[C@@H](C)[C@@H]1O` : MBC is 32

Summary for this molecule, C=CC1(C)CC(OC(=O)Cn2cc(CN3CCC(O)CC3)nn2)C2(C)C(C)CCC3(CCC(=O)C32)C(C)C1O (centres unmarked) : MBC is 32

Summary for this molecule, `C=C[C@]1(C)C[C@@H](OC(=O)CO)[C@]2(C)[C@H](C)CC[C@]3(CCC(=O)[C@H]32)[C@@H](C)[C@@H]1O` : MBC is 4

Summary for this molecule, `C=C[C@]1(C)C[C@@H](OC(=O)Cn2cc(CN3CCN(c4cccc(OC)c4)CC3)nn2)[C@]2(C)[C@H](C)CC[C@]3(CCC(=O)[C@H]32)[C@@H](C)[C@@H]1O` : MBC is 16

Summary for this molecule, `C=C[C@]1(C)C[C@@H](OC(=O)Cn2cc(CN3CCN(c4ccc([N+](=O)[O-])cc4)CC3)nn2)[C@]2(C)[C@H](C)CC[C@]3(CCC(=O)[C@H]32)[C@@H](C)[C@@H]1O` : MBC is 4

Summary for this molecule, `C=C[C@]1(C)C[C@@H](OC(=O)Cn2cc(CN3CCN(c4ccccc4Cl)CC3)nn2)[C@]2(C)[C@H](C)CC[C@]3(CCC(=O)[C@H]32)[C@@H](C)[C@@H]1O` : MBC is 32
